# test_name: qHTS for inhibitors of ER calcium dysfunction: SERCaMP assay screened against the NCATS CANVASS Library (AID 1347393); also: nearly all actives have a fitted effect of over 40% in size
# settings: SH-SY5Y GLuc-SERCaMP (Gaussia luciferase released on ER calcium loss) secretion, thapsigargin, luminescence; series mostly up to 76.6 µM
Results filed as inconclusive are left out. The source made the active and inactive calls. Calls follow the shape of the dose curve; as a rule, active = well fitted inhibition curve with a large enough effect; inconclusive = small, poorly fitted or top-dose-only effect; inactive = no such curve, though single readings can be large or run the other way.
Outcomes: yes = active, no = inactive

1) C/C=C/C=C/C1(O)C2C=C3C(=O)CC45C(=O)C(O)=C(C)C(=O)C4C1C1(C(=O)C(O)=C(C)C(=O)C351)C2C (stereo not drawn) | no
2) CCC[C@@H](C)/C=C(\C)[C@H](O)[C@H](C)/C=C/CC[C@@H](O)[C@H](C)[C@H](O)[C@H](C)[C@H](O)[C@H](C)[C@H]1O[C@H]([C@H](C)C(=O)O)CC[C@@H]1C | no
3) C=C1C[C@@]23C=CC(=O)[C@@](C)(CCC(=O)Nc4c(O)ccc(C(=O)O)c4O)C2C[C@@H]1CC3 (stereo partly drawn) | no
4) CC(=O)O[C@H]1CC[C@@]2(C)C(CC[C@]3(C)C2CC=C2C4CC(C)(C)CC[C@]4(C)CC[C@]23C)C1(C)C (stereo partly drawn) | no
5) CC(=O)NC[C@@H]1O[C@H](CC/C=C(C)/C(C)=C/C=O)[C@H](C)C[C@H]1O | yes
6) COC1C(O)C(OC(N)=O)C(Oc2ccc3c(O)c(NC(=O)c4ccc(O)c(CC=C(C)C)c4)c(=O)oc3c2C)OC1(C)C (stereo not drawn) | yes
7) COc1cc(/C=C2/C(=O)N(c3ccc(O)cc3C(=O)O)[C@H](c3ccc(O)c(OC)c3)C2C(=O)Nc2ccc(O)cc2C(=O)O)ccc1O (stereo partly drawn) | no
8) C=C1C(=O)C[C@H]2C[C@@H]1[C@]2(C)CCC=C(C)C | yes
